Recorded EC50 values for a group of binders are listed next.
tested-target: T1, mouse serum albumin (mouse, UniProt P07724 25-608)
T1 construct: also called MSA; MuSA
T1 sequence (P07724 25-608 limits assumed): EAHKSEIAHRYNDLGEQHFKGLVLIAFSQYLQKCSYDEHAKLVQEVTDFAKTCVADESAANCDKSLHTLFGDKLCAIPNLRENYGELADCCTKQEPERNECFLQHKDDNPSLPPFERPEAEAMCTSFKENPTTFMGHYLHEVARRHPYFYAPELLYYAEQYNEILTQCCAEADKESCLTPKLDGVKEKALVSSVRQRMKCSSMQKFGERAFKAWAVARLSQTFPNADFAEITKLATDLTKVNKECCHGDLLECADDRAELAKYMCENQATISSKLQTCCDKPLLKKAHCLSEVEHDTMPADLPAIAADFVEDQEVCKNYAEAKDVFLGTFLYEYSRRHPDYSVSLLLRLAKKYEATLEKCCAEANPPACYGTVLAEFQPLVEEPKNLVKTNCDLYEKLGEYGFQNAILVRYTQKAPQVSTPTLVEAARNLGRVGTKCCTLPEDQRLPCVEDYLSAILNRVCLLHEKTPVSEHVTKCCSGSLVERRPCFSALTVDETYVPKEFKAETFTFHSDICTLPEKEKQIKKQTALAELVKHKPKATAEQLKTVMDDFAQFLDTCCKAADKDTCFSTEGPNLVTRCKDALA
protocol-description: direct binding ELISA, albumin coated
quantity: EC50 (nM)

- binder: "PCSK9-PKE2 tandem 4472_D06 (designed binder, not shown: The inter-domain linker; In the real molecule the two parts below are one polypeptide joined by this linker) PCSK9 domain: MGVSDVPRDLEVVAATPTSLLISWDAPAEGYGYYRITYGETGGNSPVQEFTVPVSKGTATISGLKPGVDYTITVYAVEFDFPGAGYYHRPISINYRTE PKE2 domain: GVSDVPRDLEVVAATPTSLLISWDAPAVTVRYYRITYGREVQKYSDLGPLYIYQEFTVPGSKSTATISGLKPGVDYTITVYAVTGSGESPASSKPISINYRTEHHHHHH"
  assay-result: 15.6
- binder: "PCSK9-PKE2 tandem 4472_H09 (designed binder, The real molecule is ONE polypeptide: PCSK9 domain, undisclosed linker C, PKE2 domain. It is given here as two chains because the linker letters are unknown., not shown: The inter-domain linker) PCSK9 domain: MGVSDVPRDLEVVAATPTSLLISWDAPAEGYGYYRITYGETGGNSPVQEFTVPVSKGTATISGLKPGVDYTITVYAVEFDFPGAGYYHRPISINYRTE PKE2 domain: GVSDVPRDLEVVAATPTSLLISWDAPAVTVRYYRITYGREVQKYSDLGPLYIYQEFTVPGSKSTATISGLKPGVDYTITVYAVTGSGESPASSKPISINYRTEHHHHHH"
  assay-result: 4
